- Test system: Vero E6
- assay_method_text: cell viability relative to DMSO; higher = less toxic
- recorded_conditions: 72 h; 1000 nM
Listed here: items and their measured cell viability.

compound	cell viability (%)
Cc1cc(C(=O)Nc2cc(Oc3ccc4nc(NC(=O)C5CC5)cn4n3)ccc2C)n(C)n1	95.4
Nc1ncnc2c1ncn2[C@@H]1O[C@H](COP(=O)(O)O)[C@@H](O)[C@H]1O [adenosine-phosphate]	91
CC(=O)C1=C(O)[C@@H]2[C@H]3c4c[nH]c5cccc(c45)C[C@H]3C(C)(C)N2C1=O	95.3
C[C@]12CC[C@@H]3c4ccc(O)cc4CC[C@H]3[C@@H]1C[C@@H](O)[C@@H]2O	89.2

Hey, just so you know, these numbers are from the supplement of paper PMC13380429.
